tested on: human PGC-1α promoter; test: Modulation of the human PGC-1α promoter activity (luciferase reporter, Hep G2); type: cell-based; details: Hep G2 transfected with luciferase under human PGC-1α promoter; peptide 0.5 mg/mL, 24 hours; normalized to carrier = 100%
Give measured Activity of the PGC-1α promoter (%) for each item. Keep answers brief.
Give the value in % but do not write % after it.

Hello, I am looking for reported Activity of the PGC-1α promoter (%) with human PGC-1α promoter for Ac-L-Ser-L-Val-L-Tyr-L-Val-Gly-L-Val-NH2 (Ac-SVYVGV-NH2) [Ac-SEQ ID NO. 44-NH2] . Could you help?
67

State its Activity of the PGC-1α promoter (%) on human PGC-1α promoter: Ac-L-Ser-L-Val-L-Tyr-L-Val-L-Ala-L-Thr-NH2 (Ac-SVYVAT-NH2) [Ac-SEQ ID NO. 5-NH2]
69

Hello, I am looking for reported Activity of the PGC-1α promoter (%) with human PGC-1α promoter for Ac-L-Ser-L-Ile-L-Tyr-L-Val-L-Ala-L-Thr-NH2 (Ac-SIYVAT-NH2) [Ac-SEQ ID NO. 1-NH2] . Could you help?
57

Any idea what Activity of the PGC-1α promoter (%) came out for Ac-L-Ser-L-Val-L-Val-L-Val-L-Ala-L-Thr-NH2 (Ac-SVVVAT-NH2) [Ac-SEQ ID NO. 9-NH2] on human PGC-1α promoter?
62

So what Activity of the PGC-1α promoter (%) did Ac-L-His-L-Ile-L-Val-L-Val-L-Ala-L-Val-NH2 (Ac-HIVVAV-NH2) [Ac-SEQ ID NO. 29-NH2] get with human PGC-1α promoter?
81

Requested read-out Activity of the PGC-1α promoter (%), target or system human PGC-1α promoter, entry Ac-L-His-L-Ile-L-Tyr-L-Val-L-Arg-L-Thr-NH2 (Ac-HIYVRT-NH2) [Ac-SEQ ID NO. 10-NH2]
115

Param readout = Activity of the PGC-1α promoter (%); param system = human PGC-1α promoter; param query = Ac-L-Ser-L-Ile-L-Tyr-L-Val-L-Ala-L-Val-NH2 (Ac-SIYVAV-NH2) [Ac-SEQ ID NO. 26-NH2] ; response: value
40

Give the reported Activity of the PGC-1α promoter (%) for Ac-L-His-L-Val-L-Val-L-Val-L-Arg-L-Val-NH2 (Ac-HVVVRV-NH2) [Ac-SEQ ID NO. 39-NH2] (system: human PGC-1α promoter).
186

Requested read-out Activity of the PGC-1α promoter (%), target or system human PGC-1α promoter, entry Ac-L-Ser-L-Val-L-Val-L-Val-L-Arg-L-Thr-NH2 (Ac-SVVVRT-NH2) [Ac-SEQ ID NO. 2-NH2]
114

Request - read-out Activity of the PGC-1α promoter (%) | tested on human PGC-1α promoter | substance Ac-L-His-L-Val-L-Tyr-L-Val-L-Arg-L-Val-NH2 (Ac-HVYVRV-NH2) [Ac-SEQ ID NO. 35-NH2]
132

Item Ac-L-His-L-Ile-L-Tyr-L-Val-L-Arg-L-Val-NH2 (Ac-HIYVRV-NH2) [Ac-SEQ ID NO. 33-NH2] with human PGC-1α promoter - Activity of the PGC-1α promoter (%)?
117
